tested on: trauma-induced breakdown of the blood-aqueous-barrier; experiment: In vivo trauma-induced (paracentesis) breakdown of the blood-aqueous-barrier: aqueous humor PGE2 and protein; design: species or system New Zealand Albino (NZA) rabbits; conditions: single topical dose of 0.1% drug solution/suspension 45 minutes prior to paracentesis; aqueous humor PGE2
attribute.measured: In Vivo Aqueous Humor PGE2 Accumulation Inhibition (%)
Field format: number, assumed %, no unit text.

Find the measured In Vivo Aqueous Humor PGE2 Accumulation Inhibition of NC(=O)Cc1cccc(C(=O)c2ccc(Cl)cc2)c1N [Compound 9] and report it. 98

Quickly give me recorded In Vivo Aqueous Humor PGE2 Accumulation Inhibition for CN(C)C(=O)Cc1cccc(C(=O)c2ccc(Br)cc2)c1N [4'-Br N(CH3)2, reference compound] -27

Assign In Vivo Aqueous Humor PGE2 Accumulation Inhibition to the following record: O=C(O)Cc1ccccc1Nc1c(Cl)cccc1Cl [Diclofenac, reference compound] 97

Supply recorded In Vivo Aqueous Humor PGE2 Accumulation Inhibition for Nc1c(CC(=O)O)cccc1C(=O)c1ccc(Cl)cc1 [4'-Cl OH, reference compound] here. 99

Specify measured In Vivo Aqueous Humor PGE2 Accumulation Inhibition for NC(=O)Cc1cccc(C(=O)c2ccc(Br)cc2)c1N [Compound 15] . 97

Fill in reported In Vivo Aqueous Humor PGE2 Accumulation Inhibition for this entry: CNC(=O)Cc1cccc(C(=O)c2ccc(Br)cc2)c1N [Compound 16] 93

Identify measured In Vivo Aqueous Humor PGE2 Accumulation Inhibition corresponding to Nc1c(CC(=O)O)cccc1C(=O)c1ccc(Br)cc1 [Bromfenac, reference compound] 98

Give the measured In Vivo Aqueous Humor PGE2 Accumulation Inhibition for NC(=O)Cc1cccc(C(=O)c2ccccc2)c1N [Compound 8, 2-Amino-3-benzoyl-phenylacetamide] 98

Supply recorded In Vivo Aqueous Humor PGE2 Accumulation Inhibition for NC(=O)Cc1cccc(C(=O)c2ccc(F)cc2)c1N [Compound 7] here. 98
